Test system: ATP-ase
Test: ATP-ase inhibition, methods of Okita et al (1973) and Kupchan et al (1964)
Assay type: biochemical, guinea pigs (brain)
Conditions: guinea pig brain ATP-ase; read-out: Molar concentration causing 50% ATP-ase inhibition
PROPERTY: pIC50
The quantity pIC50 is defined as the negative base-10 logarithm of the molar concentration.

Consider the compound shown here: `C[C@]12CCCC[C@H]1CC[C@@H]1[C@@H]2C[C@@H](O)[C@]2(C)[C@@H](C3=CC(=O)OC3)CC[C@]12O` What is its recorded pIC50?
4.17

Reference source: patent US4102884A
